Assay: Apparent permeability of the compound across apical side to basolateral side in human Caco2 cells monolayer at 10 uM after 1 hr by LC-MS/MS analysis
Type: ADME, cell-based
Settings: Caco-2
Papp A→B at 1 h, 10 µM reference
reported_metric: Papp A→B at 1 h, 10 µM (×10⁻⁶ cm/s)

chemical_structure: O=C(CCn1cnc([N+](=O)[O-])n1)Nc1cccc(OCc2ccccc2)c1
reported_metric: Papp A→B at 1 h, 10 µM
meas_value: 22.2
--
chemical_structure: O=C(CCn1cnc([N+](=O)[O-])n1)Nc1cccc(-c2ccccc2)c1
reported_metric: Papp A→B at 1 h, 10 µM
meas_value: 22.2
